Origin of measurements: ChEMBL document CHEMBL2203069

# Experiment Summary: Clearance in CD-1 mouse at 1 mg/kg, iv
# Assay type: ADME, organism-based
# Parameters: dose 1 mg/kg, route intravenous
# Experimental Parameters: in vivo
Endpoint: clearance (mL/min/kg)
Response body: numeric value in mL/min/kg, unit text excluded.

## Input Sample Cn1cc(Nc2ncc(C3CC3)c(NCCCNC(=O)C3CCC3)n2)cn1 — what was its clearance?
## Output 79

---

Each item that follows carries a reported efflux ratio.
# Experiment Summary: Efflux ratio of permeability from basolateral to apical side to apical to basolateral side in human Caco2 cells
# Assay type: ADME, cell-based
# Experimental Parameters: Caco-2
Enter a number only.

As a guide, the following entries are already answered.
| Substance Smiles | efflux ratio |
| --- | --- |
| Cn1cc(Nc2ncc(C3CC3)c(NCCCNC(=O)C3CCC3)n2)cn1 | 8 |
| CN(C)Cc1ccc(Nc2ncc(C3CC3)c(NCCCNC(=O)C3CCC3)n2)cc1 | 56 |
| CC(C)N1CCC(n2cc(Nc3ncc(C4CC4)c(NCCCNC(=O)C4CCC4)n3)cn2)CC1 | 16 |
| O=C(NCCCNc1nc(Nc2ccc(N3CCOCC3)cc2)ncc1C1CC1)C1CCC1 | 1 |

## Input Sample O=C(NCCCNc1nc(Nc2ccc(CN3CCCCC3)nc2)ncc1C1CC1)C1CCC1 — what was its efflux ratio?
## Output 780

## Input Sample O=C(NCCCNc1nc(Nc2ccc(-n3cncn3)cc2)ncc1C1CC1)C1CCC1 — what was its efflux ratio?
## Output 3

---

# Test Target: Serine/threonine-protein kinase TBK1 (Mus musculus)
# Sequence (Q9WUN2 whole entry): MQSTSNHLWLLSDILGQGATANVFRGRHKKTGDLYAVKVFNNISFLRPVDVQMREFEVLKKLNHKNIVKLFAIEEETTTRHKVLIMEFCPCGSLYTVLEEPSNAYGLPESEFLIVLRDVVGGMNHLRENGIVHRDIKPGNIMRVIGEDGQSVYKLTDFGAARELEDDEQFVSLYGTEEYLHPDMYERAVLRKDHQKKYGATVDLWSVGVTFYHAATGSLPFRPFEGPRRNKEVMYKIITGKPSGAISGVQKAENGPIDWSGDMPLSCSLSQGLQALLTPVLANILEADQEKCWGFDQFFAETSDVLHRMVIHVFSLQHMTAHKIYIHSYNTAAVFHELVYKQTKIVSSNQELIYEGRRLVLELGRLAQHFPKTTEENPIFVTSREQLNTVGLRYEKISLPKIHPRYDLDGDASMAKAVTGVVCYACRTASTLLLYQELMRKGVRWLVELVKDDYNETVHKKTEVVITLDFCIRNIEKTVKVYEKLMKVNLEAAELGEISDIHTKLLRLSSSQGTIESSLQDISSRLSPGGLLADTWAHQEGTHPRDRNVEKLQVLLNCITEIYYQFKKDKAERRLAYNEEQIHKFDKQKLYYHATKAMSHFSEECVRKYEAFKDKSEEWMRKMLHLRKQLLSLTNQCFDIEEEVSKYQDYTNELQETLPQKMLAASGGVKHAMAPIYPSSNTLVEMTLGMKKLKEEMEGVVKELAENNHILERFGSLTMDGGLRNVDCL
# Experiment Summary: Inhibition of TBK1-mediated RANTES release in LPS-stimulated mouse RAW264.7 cells compound incubated for 30 mins prior LPS challenge measured after 6 hrs by ELISA
# Assay type: cell-based
# Experimental Parameters: read-out: IC50
Endpoint: IC50 (nM)
Response body: numeric value in nM, unit text excluded.

| Substance Smiles | IC50 [nM] |
| --- | --- |
| O=C(NCCCNc1nc(Nc2ccc3c(c2)CN(C2CC2)CC3)ncc1C1CC1)C1CCC1 | 570 |

## Input Sample O=C(NCCCNc1nc(Nc2cnn(C3CCC3)c2)ncc1C1CC1)C1CCC1 — what was its IC50?
## Output 220

## Input Sample Cn1cc(Nc2ncc(C3CC3)c(NCCCNC(=O)C3CCC3)n2)cn1 — what was its IC50?
## Output 170

## Input Sample CN(C)Cc1ccc(Nc2ncc(C3CC3)c(NCCCNC(=O)C3CCC3)n2)cc1 — what was its IC50?
## Output 550
